IC50 listing for selected molecules.
# test target: recombinant full-length human prolyl endopeptidase (PREP) (Homo sapiens, UniProt P48147)
# Construct: To recombinant full-length human prolyl endopeptidase (PREP, R&D-Systems, 4308-SE)
# Sequence (P48147 whole entry): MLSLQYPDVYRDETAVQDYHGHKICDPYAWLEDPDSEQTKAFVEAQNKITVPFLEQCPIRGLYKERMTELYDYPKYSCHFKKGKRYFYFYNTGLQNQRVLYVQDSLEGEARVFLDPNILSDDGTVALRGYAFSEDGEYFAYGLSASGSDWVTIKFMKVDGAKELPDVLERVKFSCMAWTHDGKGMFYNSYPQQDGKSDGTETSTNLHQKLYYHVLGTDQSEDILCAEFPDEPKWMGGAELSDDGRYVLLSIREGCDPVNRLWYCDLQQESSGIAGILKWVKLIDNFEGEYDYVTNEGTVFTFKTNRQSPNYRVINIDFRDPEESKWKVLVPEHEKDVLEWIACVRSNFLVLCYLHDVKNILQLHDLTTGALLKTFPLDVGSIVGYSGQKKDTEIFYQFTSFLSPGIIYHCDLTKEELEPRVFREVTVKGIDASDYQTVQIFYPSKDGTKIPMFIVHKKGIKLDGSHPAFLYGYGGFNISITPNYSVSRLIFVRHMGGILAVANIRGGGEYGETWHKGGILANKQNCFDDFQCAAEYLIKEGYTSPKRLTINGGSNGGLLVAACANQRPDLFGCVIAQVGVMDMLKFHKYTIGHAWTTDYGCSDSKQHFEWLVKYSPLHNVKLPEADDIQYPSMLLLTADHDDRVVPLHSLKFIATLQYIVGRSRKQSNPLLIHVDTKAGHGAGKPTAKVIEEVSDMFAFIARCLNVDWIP
# run description: Biochemical human prolyl endopeptidase (PREP) assay with fluorescently labelled substrate
# measurement parameters: substrate Z-Gly-Pro-AMC 50 μM, 32° C., 60 min; some as mean values from multiple independent determinations
Just the number please, in nM, no unit attached.

# count of solved cases: 7
Cc1ccc(Cn2nc3n(c2=O)[C@H](C(=O)N2CCC[C@@H]2C)CCC3)cc1 [Example 127]: 43.5
CC1CCC(C(=O)N2CCC(F)(F)C2)n2c1nn(Cc1ccc(F)cc1F)c2=O (racemic) [Example 327]: 1.9
O=C([C@@H]1CCCc2nn(Cc3ccnc(C(F)(F)F)c3F)c(=O)n21)N1CCSC1 [Example 485]: 4.3
O=C([C@@H]1CCCc2nn(Cc3cc(F)c(F)cc3F)c(=O)n21)N1CCC(F)(F)C1 [Example 490]: 0.38
O=C([C@@H]1CCCc2nn(Cc3ncc(Cl)cc3F)c(=O)n21)N1CC(F)(F)C1 [Example 409]: 14
O=C([C@@H]1CCCc2nn(Cc3ccc(Br)cn3)c(=O)n21)N1CC[C@H](F)C1 [Example 510]: 0.535
O=C([C@@H]1CCCc2nn(Cc3cccc(C(F)(F)F)c3)c(=O)n21)N1CC[C@H](O)C1 [Example 99]: 12.7

Next, consider the following molecule.
Ask | Identify measured IC50 obtained with recombinant full-length human prolyl endopeptidase (PREP) (Homo sapiens, UniProt P48147) for Cc1ccc(Cn2nc3n(c2=O)C(C(=O)N2CC(OC(F)F)C2)CCC3)cc1 (racemic) [Example 123] .
Reply | 12

Origin of measurements: patent US10722501B2
